- SYSTEM NAME: human μ-opioid receptor (hMOPr) (human) (UniProt P35372)
- Sequence (P35372 whole entry): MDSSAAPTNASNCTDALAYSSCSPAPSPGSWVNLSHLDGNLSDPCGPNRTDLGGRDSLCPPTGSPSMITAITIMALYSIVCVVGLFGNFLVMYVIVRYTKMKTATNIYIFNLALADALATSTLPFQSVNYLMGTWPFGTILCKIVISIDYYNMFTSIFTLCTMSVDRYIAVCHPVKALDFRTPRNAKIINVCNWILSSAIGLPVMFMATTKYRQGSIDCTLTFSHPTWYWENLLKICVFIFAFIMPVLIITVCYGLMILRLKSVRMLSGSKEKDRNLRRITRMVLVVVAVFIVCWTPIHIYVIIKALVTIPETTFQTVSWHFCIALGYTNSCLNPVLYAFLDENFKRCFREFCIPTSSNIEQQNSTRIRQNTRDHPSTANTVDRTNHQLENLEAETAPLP
- ASSAY COMMENT: radioligand binding
READOUT KIND: Ki (nM)

FVVF (D-Val at 2, D-Phe at 4; C-terminal amide) [C-terminally amidated bilaid A (1e)] ... 750
